From: PubChem BioAssay

biological target: Short transient receptor potential channel 4 (Mus musculus) (UniProt Q9QUQ5); experiment: calcium flux activators in TRPC4/5HT1a cells, counter-screen for TRPC4 activator project, cell-based, second counter screen, HEK293 TRPC4/5HT1a, Fluo-4 (AID 434977); conditions: Fluo-4 calcium flux, at 10 µM
Active and inactive are the calls of the source.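 Rule for the calls: active = calcium signal rise above buffer-control mean plus 5 SD in both duplicates, and also a hit in the primary screen; inactive = the rest.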
Classes used: active, inactive

{"columns": ["compound", "measured-on", "label"],
 "data": [
  ["O=C1C(Cl)=C(Nc2cccc(O)c2)C(=O)N1Cc1ccccc1", "Short transient receptor potential channel 4 (Mus musculus) (UniProt Q9QUQ5)", "inactive"],
  ["CCOCCCn1cnc2c(c1=O)c1nc3ccccc3nc1n2-c1ccc(C)cc1", "Short transient receptor potential channel 4 (Mus musculus) (UniProt Q9QUQ5)", "inactive"],
  ["O=[N+]([O-])c1cccc(CSc2nnc(Cc3ccccc3)n2-c2ccc(F)cc2)c1", "Short transient receptor potential channel 4 (Mus musculus) (UniProt Q9QUQ5)", "inactive"],
  ["CCCc1cc(=O)[nH]c(SCC(=O)Nc2sc3c(c2C#N)CCCC3)n1", "Short transient receptor potential channel 4 (Mus musculus) (UniProt Q9QUQ5)", "inactive"],
  ["COc1ccc2nc(C)cc(NCc3ccc(F)cc3)c2c1", "Short transient receptor potential channel 4 (Mus musculus) (UniProt Q9QUQ5)", "inactive"],
  ["CC1CCCN(c2c3c(nc4ccccc24)CCCC3)C1 (stereo not drawn)", "Short transient receptor potential channel 4 (Mus musculus) (UniProt Q9QUQ5)", "inactive"],
  ["CC(C)(C)c1cc(O)c(C(C)(C)C)cc1O", "Short transient receptor potential channel 4 (Mus musculus) (UniProt Q9QUQ5)", "active"],
  ["Cc1ccc(Cl)c(OCCN2CCCC(C)C2)c1 (stereo not drawn)", "Short transient receptor potential channel 4 (Mus musculus) (UniProt Q9QUQ5)", "inactive"],
  ["CN(CC(=O)Nc1ccc(F)cc1)C(=O)COC(=O)c1ccccc1", "Short transient receptor potential channel 4 (Mus musculus) (UniProt Q9QUQ5)", "inactive"],
  ["COCCCNc1cc(C)nc2ccccc12", "Short transient receptor potential channel 4 (Mus musculus) (UniProt Q9QUQ5)", "inactive"],
  ["COc1ccccc1N1CCN(CC(C)N(C(=O)C2CCCCC2)c2ccccn2)CC1 (stereo not drawn)", "Short transient receptor potential channel 4 (Mus musculus) (UniProt Q9QUQ5)", "inactive"],
  ["CCCCN1/C(=C/c2ccc3ccccc3[n+]2CC)Sc2ccccc21", "Short transient receptor potential channel 4 (Mus musculus) (UniProt Q9QUQ5)", "active"],
  ["CC(=O)Nc1ccc(S(=O)(=O)Nc2nc3ccc(C)cc3s2)cc1", "Short transient receptor potential channel 4 (Mus musculus) (UniProt Q9QUQ5)", "inactive"],
  ["CCCc1c(-c2ccc(O)cc2)nn(-c2ccc(O)cc2)c1-c1ccc(O)cc1", "Short transient receptor potential channel 4 (Mus musculus) (UniProt Q9QUQ5)", "inactive"],
  ["Cc1ccc(-n2c(N)cc(=O)nc2SCC(=O)N2CCN(c3ccccc3)CC2)cc1", "Short transient receptor potential channel 4 (Mus musculus) (UniProt Q9QUQ5)", "inactive"],
  ["CCCN(C(=O)COC(=O)C12CCC(=O)N1c1ccccc1S2)c1c(N)n(Cc2ccccc2)c(=O)[nH]c1=O (stereo not drawn)", "Short transient receptor potential channel 4 (Mus musculus) (UniProt Q9QUQ5)", "inactive"],
  ["Cc1ccc(Nc2cc(C)nc3ccc(C)cc23)cc1", "Short transient receptor potential channel 4 (Mus musculus) (UniProt Q9QUQ5)", "inactive"],
  ["CCCn1nc([N+](=O)[O-])c(C(C#N)c2nc3ccccc3o2)c(Cl)c1=O (stereo not drawn)", "Short transient receptor potential channel 4 (Mus musculus) (UniProt Q9QUQ5)", "inactive"],
  ["CC[n+]1c(/C=C/c2ccc(OC(C)=O)c(OC)c2)ccc2ccccc21", "Short transient receptor potential channel 4 (Mus musculus) (UniProt Q9QUQ5)", "inactive"],
  ["CN(C)C(CNC(=O)c1ccc2nc[nH]c2c1)c1ccccc1 (stereo not drawn)", "Short transient receptor potential channel 4 (Mus musculus) (UniProt Q9QUQ5)", "inactive"],
  ["CCN(CC)CCn1c2ccccc2c2cnc(N)c(C#N)c21", "Short transient receptor potential channel 4 (Mus musculus) (UniProt Q9QUQ5)", "inactive"],
  ["Cc1ccc(C[n+]2cccc(-c3ccccc3)c2)c(C)c1", "Short transient receptor potential channel 4 (Mus musculus) (UniProt Q9QUQ5)", "inactive"],
  ["Clc1ccc2nc(CN3CCCc4ccccc43)cn2c1", "Short transient receptor potential channel 4 (Mus musculus) (UniProt Q9QUQ5)", "inactive"]
]}
